Measured CC50 at 144 h by item
Experiment: Cytotoxicity in PHH natural infection assay (Cell Counting Kit-8)
Assay type: cell-based
Details: human; HBV-infected PHH, CCK8, compound refreshed two times with 72-hour interval
Experimental: Detailed procedures regarding primary human hepatocyte (PHH) HBV natural infection assay are described as below. […] HBsAg and HBeAg were detected using alphalisa method using their specific antibodies. For HBV DNA detection, HBV DNA Quantitative Fluorescence Diagnostic Kit (Sansure Biotech Inc.) was used following the manufacture’s protocol. Cytotoxicity was determined using Cell Counting Kit-8 (CCK8, Dojindo Molecular Technologies, Inc.).
attribute-measured: CC50 at 144 h

1) [H][C@]1(NC(=O)c2ccnc(C(N)=O)c2)C[C@@]2(C1)C[C@]([H])(c1nc3cc(Cl)ccc3s1)C2 (single isomer, unassigned)	36.8 µM
2) O=C(NC1CC2(C1)CC(c1nc3cc(Cl)ccc3s1)C2)c1ccc(S(=O)(=O)NC2CC(C(F)(F)F)C2)o1 (stereo not drawn)	19.7 µM
3) O=C(NC1CC2(C1)CC(c1nc3cc(Cl)ccc3s1)C2)c1ccc(C(O)C(F)(F)F)o1 (stereo not drawn)	> 10 µM
4) CC(C)(c1cc(C(=O)NC2CC3(C2)CC(c2nc4cc(Cl)ccc4s2)C3)ccn1)S(C)(=O)=O (stereo not drawn)	35.9 µM
5) [H][C@]1(NC(=O)c2ccnc(C(N)=O)c2)C[C@]2(C1)C[C@]([H])(c1nc3cc(Cl)ccc3s1)C2 (single isomer, unassigned)	> 10 µM
6) [H][C@]1(NC(=O)c2ccnc(S(C)(=O)=O)c2)C[C@]2(C1)C[C@]([H])(c1nc3cc(Cl)ccc3s1)C2 (single isomer, unassigned)	15.3 µM
7) O=C(NC1CC2(C1)CC(c1nc3cc(Cl)ccc3s1)C2)c1ccc(C(F)(F)F)o1 (stereo not drawn)	> 100 µM
8) CCN(CC)c1cc(C(=O)NC2CC3(C2)CC(c2nc4cc(Cl)ccc4s2)C3)ccn1 (stereo not drawn)	> 10 µM
9) CC(C)(c1ccc(C(=O)NC2CC3(C2)CC(c2nc4cc(Cl)ccc4s2)C3)o1)S(C)(=O)=O (stereo not drawn)	35.7 µM
10) O=C(NC1CC2(C1)CC(c1nc3cc(Cl)ccc3s1)C2)c1ccnc(C(F)(F)F)c1 (stereo not drawn)	> 10 µM
11) CS(=O)(=O)c1cc(C(=O)NC2CC3(C2)CC(c2nc4cc(Cl)ccc4s2)C3)ccn1 (stereo not drawn)	> 50 µM
12) O=C(NC1CC2(C1)CC(c1nc3cc(Cl)ccc3s1)C2)c1ccc(S(=O)(=O)NC2CC(F)(F)C2)o1 (stereo not drawn)	14.3 µM
13) CS(=N)(=O)c1cc(C(=O)NC2CC3(C2)CC(c2nc4cc(Cl)ccc4s2)C3)ccn1 (stereo not drawn)	> 10 µM
14) NC(=O)Nc1cc(C(=O)NC2CC3(C2)CC(c2nc4cc(Cl)ccc4s2)C3)ccn1 (stereo not drawn)	> 50 µM
15) O=C(NC1CC2(C1)CC(c1nc3cc(Cl)ccc3s1)C2)C1CCS(=O)(=O)C1 (stereo not drawn)	> 100 µM

###

Assay: Cytotoxicity in PHH natural infection assay (Cell Counting Kit-8)
Assay type: cell-based
Conditions: human; HBV-infected PHH, CCK8, compound refreshed two times with 72-hour interval
attribute-measured: CC50 at 144 h

1. O=C(NC1CC2(C1)CC(c1nc3cc(Cl)ccc3s1)C2)c1ccc(S(=O)(=O)N2CC(F)(F)C2)o1 (stereo not drawn) [Example 21]	> 10 µM
2. O=C(NC1CC2(C1)CC(c1nc3cc(Cl)ccc3s1)C2)c1ccnc(N2CCCCC2)c1 (stereo not drawn) [Example 51]	> 10 µM
3. CP(C)(=O)c1cccc(C(=O)NC2CC3(C2)CC(c2nc4cc(Cl)ccc4s2)C3)c1 (stereo not drawn) [Example 3]	> 10 µM
4. [H][C@]1(NC(=O)c2cc(C(N)=O)ncn2)C[C@]2(C1)C[C@]([H])(c1nc3cc(Cl)ccc3s1)C2 (single isomer, unassigned) [Example 56-b]	> 10 µM
5. CC(C)Oc1cc(C(=O)NC2CC3(C2)CC(c2nc4cc(Cl)ccc4s2)C3)ccn1 (stereo not drawn) [Example 43]	> 10 µM
6. CC(C)N(C)c1cc(C(=O)NC2CC3(C2)CC(c2nc4cc(Cl)ccc4s2)C3)ccn1 (stereo not drawn) [Example 49]	> 10 µM
7. O=C(NC1CC2(C1)CC(c1nc3ccc(Cl)cc3s1)C2)c1ccnc(S(=O)(=O)C2CC2)c1 (stereo not drawn) [Example 37]	10.1 µM
8. O=C(NC1CC2(C1)CC(c1nc3cc(Cl)ccc3s1)C2)c1ccc(S(=O)(=O)C2CC2)o1 (stereo not drawn) [Example 13]	94.9 µM
9. CNc1cc(C(=O)NC2CC3(C2)CC(c2nc4cc(Cl)ccc4s2)C3)ccn1 (stereo not drawn) [Example 44]	> 10 µM
10. Nc1nc(C(=O)NC2CC3(C2)CC(c2nc4cc(Cl)ccc4s2)C3)cs1 (stereo not drawn) [Example 19]	31.5 µM
11. O=C(CC1CS(=O)(=O)C1)NC1CC2(C1)CC(c1nc3cc(Cl)ccc3s1)C2 (stereo not drawn) [Example 28]	> 10 µM
12. O=C(NC1CC2(C1)CC(c1nc3cc(Cl)ccc3s1)C2)C1CS(=O)(=O)C1 (stereo not drawn) [Example 25]	> 10 µM
13. CCS(=O)(=O)c1cc(C(=O)NC2CC3(C2)CC(c2nc4cc(Cl)ccc4s2)C3)ccn1 (stereo not drawn) [Example 9]	13.4 µM
14. CN(C)c1cc(C(=O)NC2CC3(C2)CC(c2nc4cc(Cl)ccc4s2)C3)ccn1 (stereo not drawn) [Example 46]	> 10 µM
15. [H][C@]1(NC(=O)c2ccnc(S(=O)(=O)C3CC3)c2)C[C@@]2(C1)C[C@]([H])(c1nc3cc(Cl)ccc3s1)C2 (single isomer, unassigned) [Example 55-a]	22.5 µM

###

Test: Cytotoxicity in PHH natural infection assay (Cell Counting Kit-8)
Assay type: cell-based
Conditions: human; HBV-infected PHH, CCK8, compound refreshed two times with 72-hour interval
Measured CC50 at 144 h by item
attribute-measured: CC50 at 144 h

1. COc1cc(C(=O)NC2CC3(C2)CC(c2nc4cc(Cl)ccc4s2)C3)ccn1 (stereo not drawn) [Example 42]	> 10 µM
2. O=C1CCC(CC(=O)NC2CC3(C2)CC(c2nc4cc(Cl)ccc4s2)C3)N1 (stereo not drawn) [Example 33]	> 10 µM
3. O=C(NC1CC2(C1)CC(c1nc3cc(Cl)ccc3s1)C2)c1ccnc(N2CCOCC2)c1 (stereo not drawn) [Example 52]	> 10 µM
4. O=C(NC1CC2(C1)CC(c1nc3cc(Cl)ccc3s1)C2)c1cccc(C(F)(F)F)c1 (stereo not drawn) [Example 1]	> 10 µM
5. O=C(NC1CC2(C1)CC(c1nc3cc(Cl)ccc3s1)C2)c1ccc(S(=O)(=O)N2CCC2)o1 (stereo not drawn) [Example 20]	> 10 µM
6. [H][C@]1(NC(=O)c2ccnc(S(C)(=O)=O)c2)C[C@@]2(C1)C[C@]([H])(c1nc3cc(Cl)ccc3s1)C2 (single isomer, unassigned) [Example 54-a]	> 10 µM
7. O=C(NC1CC2(C1)CC(c1nc3cc(Cl)ccc3s1)C2)c1ccnc(N2CCCC2)c1 (stereo not drawn) [Example 50]	> 10 µM
8. O=C(NC1CC2(C1)CC(c1nc3cc(Cl)ccc3s1)C2)C1CCS(=O)(=O)N1 (stereo not drawn) [Example 34]	> 10 µM
9. CC(C)(C)S(=O)(=O)c1cc(C(=O)NC2CC3(C2)CC(c2nc4cc(Cl)ccc4s2)C3)ccn1 (stereo not drawn) [Example 38]	30.8 µM
10. O=C(NC1CC2(C1)CC(c1nc3ccc(Cl)cc3s1)C2)C1CCS(=O)(=O)C1 (stereo not drawn) [Example 27]	> 100 µM
11. CC(c1ccc(C(=O)NC2CC3(C2)CC(c2nc4cc(Cl)ccc4s2)C3)o1)S(C)(=O)=O (stereo not drawn) [Example 16]	23.9 µM
12. NC(=O)c1cc(C(=O)NC2CC3(C2)CC(c2nc4cc(Cl)ccc4s2)C3)ccn1 (stereo not drawn) [Example 11]	> 50 µM
13. O=C(CC1CCCS(=O)(=O)C1)NC1CC2(C1)CC(c1nc3cc(Cl)ccc3s1)C2 (stereo not drawn) [Example 30]	> 10 µM
14. CCN(C)c1cc(C(=O)NC2CC3(C2)CC(c2nc4cc(Cl)ccc4s2)C3)ccn1 (stereo not drawn) [Example 47]	> 10 µM
15. O=C(NC1CC2(C1)CC(c1nc3ccc(Cl)cc3s1)C2)c1ccc(C(F)(F)F)o1 (stereo not drawn) [Example 15]	> 100 µM
16. N=S(=O)(c1cc(C(=O)NC2CC3(C2)CC(c2nc4cc(Cl)ccc4s2)C3)ccn1)C1CC1 (stereo not drawn) [Example 41]	> 10 µM
17. O=C(CC1CCCS1(=O)=O)NC1CC2(C1)CC(c1nc3cc(Cl)ccc3s1)C2 (stereo not drawn) [Example 29]	> 10 µM
18. O=C(NC1CC2(C1)CC(c1nc3cc(Cl)ccc3s1)C2)c1ccnc(S(=O)(=O)CC2CC2)c1 (stereo not drawn) [Example 39]	> 10 µM

Data origin: patent US20230331715A1
